Experiment: pharmacokinetics, plasma and brain levels
Format: in vivo
Details: brain
measurement-name: Cmax brain

compound	meas-value
Cc1cc(C2(c3cccc(F)c3)N=C(N)N(C)C2=O)ccc1OC(F)F (centres unmarked)	~0.3 µM
Cc1cc(C2(c3cccc(-c4cccnc4)c3)N=C(N)N(C)C2=O)ccc1OC(F)F (centres unmarked)	<0.02 µM
Cc1cc(C2(c3cncc(F)c3)N=C(N)N(C)C2=O)ccc1OC(F)F (centres unmarked)	~0.11 uM μM
Cc1cc(C2(c3ccnc(F)c3)N=C(N)N(C)C2=O)ccc1OC(F)F (centres unmarked)	~0.3 µM
COCc1cccc(C2(c3ccc(OC(F)F)c(C)c3)N=C(N)N(C)C2=O)c1 (centres unmarked)	~0.2 µM
